Each entry below lists one item and its recorded melting point value.

Examples with their reported melting point follow.
INSERT INTO results (molecule, recorded_measurement) VALUES
  ('COc1ccc(CN(C)CCCOc2ccc(NC(=O)c3cccc4c(=O)c5cccc(C)c5[nH]c34)cc2)cc1OC', '160 °C'),
  ('C#CCOc1ccc2ccc(=O)oc2c1', '118 °C'),
  ('CC(=O)CN1C(=O)c2ccccc2C12OCCO2', '91 to 93 °C');

Problem: Tell us which melting point value is on record for CN1CC=C(c2c[nH]c3ccc(NC(=S)NC(=O)c4ccccc4)cc23)CC1
Result: 182 to 184 °C

Problem: Item C#CCn1c(-c2cc(Cl)nc(Cl)c2)nc(C)c(CC)c1=O : provide melting point
Result: 143 to 144 °C

Problem: Supply reported melting point belonging to this molecule: O=C1NC(=O)C(Cc2ccc(OCCN3CCc4ccccc43)cc2)S1 (stereo unspecified)
Result: 133 to 136 °C

Problem: Identify the reported melting point for the following entry. COc1cc(S(C)(=O)=O)ccc1-c1nc(C)c(-c2cccnc2)[nH]1
Result: 115 to 118 °C

Problem: Kindly indicate its recorded melting point. Item: CCc1nc2c(N)nc3cc(Br)cnc3c2n1CC(C)(C)O
Result: 235 to 236 °C

---

parameter_measured: melting point

Example compounds with recorded melting point:
INSERT INTO measurements (compound, parameter_measured, recorded_measurement) VALUES
  ('CCCCCCC(=O)c1ccc(O)c(Cl)c1Cl', 'melting point', '82 to 84 °C'),
  ('O=C(CN1CCOCC1)Nc1nc2c(Oc3cc(-c4ccc(C(F)(F)F)cc4)ncn3)cccc2s1', 'melting point', '178 to 182 °C'),
  ('CC(Oc1ccccc1Cl)C(=O)OC1CC(O)C=C2C=CC(C)C(CCC3CC(O)CC(=O)O3)C21 (mixture of isomers)', 'melting point', '152 to 155 °C'),
  ('CCC(=O)NS(=O)(=O)c1cccc(-c2cccc(-c3cc(-c4ccc(C(F)(F)F)cc4)cc(C)n3)n2)c1', 'melting point', '173 °C'),
  ('CNC(=O)C(Cc1c[nH]c2ccccc12)NC(=O)C(CC(C)C)C(CC(=O)OC)SC(C)=O (centres undefined)', 'melting point', '134 to 136 °C');

Problem: For CCn1c(C)nc2cc(C(=O)O)ccc21 , write its melting point.
Result: > 250 °C

Problem: Read off the recorded melting point for CCN(CC)C(=O)C(C)Cc1nc(-c2ccccc2)nc2ccccc12 (centres undefined)
Result: 93.5 °C

Problem: Please indicate melting point recorded for N#CC(=Cc1ccc(Cl)cc1)c1c(Cl)cc(N2N=CCNC2=O)cc1Cl
Result: 83 to 85 °C

Problem: # return recorded melting point for entry Cc1nc2ccc(Oc3ncccc3C(=O)NCc3ccc(C(C)(C)O)cc3)cc2s1
Result: 131 to 133 °C

---

Listed here are compounds together with their documented melting point.

Worked cases, answers included:
INSERT INTO measurements (compound, recorded_measurement) VALUES
  ('CC(C)(C)OC(=O)Nc1cc(N2CCC3(CC2)OCCO3)c(-c2ccccc2F)cc1N', '198 °C'),
  ('S=C(S)CCc1ccccc1', '57 to 59 °C'),
  ('COC1Oc2c(c(=O)oc3cc(O)ccc23)C1c1c(O)c2ccc(O)cc2oc1=O (centres undefined)', '> 300 °C'),
  ('Oc1cc(Br)cc(I)c1', '83 to 84 °C');

Problem: Give the reported melting point for this compound. CC(=O)Nc1ccc(C(=O)Nc2ccc(C(=O)N3CCCCc4ccccc43)cc2)c(Cl)c1
Result: 214 to 243 °C

Problem: Indicate the recorded melting point value for this compound: CS(=O)(=O)c1ccc(-c2cnn(-c3ccc(S(N)(=O)=O)cc3)c(=O)c2-c2ccc(F)cc2)cc1
Result: 213 to 216 °C

Problem: Fill in melting point for record COc1ccc(C(=O)C2=C(O)C(=O)N(c3ccc(C)nn3)C2c2ccc(OC)cc2)cc1 (centres undefined)
Result: 259 °C

Problem: Kindly indicate its recorded melting point. Item: Cc1ccc(S(=O)(=O)NC(C)P(=O)(Oc2ccccc2)c2ccccc2)cc1 (centres undefined)
Result: 178 to 181 °C

Problem: Name the recorded melting point of the item Cc1ccnc(CSCCNc2ncc(Cc3cccnc3)c(=O)[nH]2)c1Br in your answer.
Result: 81 to 85 °C

---

Parameter: melting point. Scope: all listed entries.

Before answering, review these 2 worked examples.
INSERT INTO measurements (compound, recorded_measurement) VALUES
  ('COc1ccc(CCNC(=O)C2CCC2)cc1', '118 to 120 °C'),
  ('Fc1ccc2c(c1)nc(CC(F)(F)F)n2C1CCNCC1', '135 °C');

Problem: Report measured melting point; entry is Clc1ncc(-c2ccsc2)cn1
Result: 154 to 157 °C

Problem: Fill in melting point for record Cc1oc(-c2ccccc2)nc1COc1ccc(COc2ccc(OCc3ccccc3)cc2CC(=O)O)cc1
Result: 140 to 141 °C

Problem: Please give the documented melting point of c1cc2cc(CSc3nnc(-c4ccc5c(c4)CCO5)o3)ccc2o1
Result: 145 to 147 °C

Problem: Give recorded melting point. Cc1cc(NCc2ccc(Oc3ccc4ncc([N+](=O)[O-])n4n3)c(OCC3CC3)c2)nc(C)n1
Result: 113 to 118 °C

Problem: Supply measured melting point of CC(C)c1cc(CN2C(=O)C3(COc4cc5c(cc43)OCO5)c3ccccc32)on1 (stereo not given) in your reply.
Result: 132 to 136 °C

Problem: Please report melting point for the following compound: CCCCC1=C(C(=O)OCC)C(c2ccccc2Cl)c2c[nH]nc2N1 (stereo not given)
Result: 209 °C

Problem: Supply recorded melting point for COc1ccc(/C=C/c2nc3c([nH]2)c(=O)n(C)c(=O)n3C)c(OC)c1 here.
Result: > 280 °C

Problem: Please indicate melting point recorded for O=C(Cc1ccc(Cl)cc1)NC1N=C(c2ccccc2)c2ccccc2NC1=O (stereo not given)
Result: 238 to 240 °C

---

Listing of recorded melting point by entry.

Known results for molecules:
INSERT INTO results (molecule, recorded_measurement) VALUES
  ('COc1ccc(CSC2=NC(c3cccc(Cl)c3Cl)C(C(=O)OC(C)C)=C(C)N2)cc1 (stereo not given)', '98 to 100 °C'),
  ('CC1(CCC(=O)O)CCCc2c1[nH]c1ccccc21 (stereo not given)', '204 to 206 °C'),
  ('CC(=O)N1CCN=C1Nc1cccc2c1CCCC2', '142 to 144 °C'),
  ('CCN1C(=O)C(=O)c2cc(S(=O)(=O)N(C)C)ccc21', '165 to 167 °C'),
  ('Brc1ccc(OC2CN(C(c3ccccc3)c3ccccc3)C2)cc1', '116 to 117 °C');

Problem: Answer with the recorded melting point of CC(C)(C)c1cc(-c2ccc(C(=O)O)c(C(C)(C)C)c2)ccc1O only.
Result: > 240 °C

Problem: Name the recorded melting point of the molecule listed here: CCCCCCCCCCCCCCOc1ccc(CO)cc1
Result: 72 to 74 °C

---

Here, each record is paired with measured melting point data.

INSERT INTO measurements (compound, recorded_measurement) VALUES
  ('CC(C)(C)NC(=O)N1CC(Oc2cccc(C(F)(F)F)c2)C1', '105 to 107 °C'),
  ('COC1(C)CCc2c(C)c(OCc3ccccc3)c(C)c(C)c2O1 (stereo not given)', '70 to 72.5 °C'),
  ('Nc1ccc(N2C(=O)CNC2=O)cc1', '230 to 231 °C'),
  ('COc1cc2nc(N(C)C)nc(N)c2cc1OC', '223 to 224 °C'),
  ('CC1=CC(OC(=O)c2ccc(N(C)C)cc2)C(O)C(C)(C)CC1=O (stereo not given)', '162 to 163 °C'),
  ('COc1cc(COc2nn(-c3ccccc3)cc2C=O)ccc1OCc1sc(-c2ccccc2)nc1C', '171 to 172 °C'),
  ('CC(=O)N(O)C(C)c1cccc(Nc2ccccc2C(=O)NN)c1Cl (stereo not given)', '193 to 195 °C'),
  ('COc1cccc(NC(C)=O)c1', '81 to 82 °C'),
  ('COc1ccc(CN2C(=O)C3(COc4cc5c(cc43)CCO5)c3ccccc32)cc1 (stereo not given)', '120 to 121 °C');

Problem: State its melting point for this compound: COC(=O)C(Oc1ccc(Cl)cc1)c1ccc(Sc2ccc(Cl)cc2)cc1 (stereo not given)
Result: 90.5 to 94.5 °C

---

parameter_measured: melting point

Solved entries (count: 2):
INSERT INTO assay_data (molecule, recorded_measurement) VALUES
  ('COC(=O)Cc1cc(NC(=O)OC(C)(C)C)c([N+](=O)[O-])cc1C#Cc1ccccc1', '134 °C'),
  ('O=C1[C@H]2CCC[C@H]2N(C(=O)CCCCCn2ccnc2)c2ccccc2N1Cc1ccccc1 (relative stereo)', '133 to 134 °C');

Problem: Determine from records and report melting point for COc1ccc(Cn2c(-c3ccco3)nc3c(-c4ccco4)ncnc32)cc1
Result: 134 to 136 °C
